Target: Cannabinoid receptor 1 (Homo sapiens, UniProt P21554)
Sequence (P21554 whole entry): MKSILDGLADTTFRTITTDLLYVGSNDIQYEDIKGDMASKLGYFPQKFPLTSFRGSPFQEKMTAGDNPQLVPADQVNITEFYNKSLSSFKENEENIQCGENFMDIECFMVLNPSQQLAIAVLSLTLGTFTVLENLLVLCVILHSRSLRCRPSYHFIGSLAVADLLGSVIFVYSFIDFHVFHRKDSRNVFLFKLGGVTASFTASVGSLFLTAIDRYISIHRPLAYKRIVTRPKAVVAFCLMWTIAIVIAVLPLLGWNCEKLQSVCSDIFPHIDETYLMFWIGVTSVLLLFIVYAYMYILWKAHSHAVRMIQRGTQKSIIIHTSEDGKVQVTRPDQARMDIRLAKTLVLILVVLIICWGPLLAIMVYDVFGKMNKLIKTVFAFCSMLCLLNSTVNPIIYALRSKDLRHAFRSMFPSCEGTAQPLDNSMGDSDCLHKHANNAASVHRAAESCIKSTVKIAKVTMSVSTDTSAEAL
Experiment: Displacement of [3H]CP-55940 from human recombinant CB1 receptor expressed in HEK293 cells
Type: cell-based
Ki less than 600 nM is yes (1); Ki greater than or equal to 600 nM is no (0).

# check: Ki < 600 nM for "CCCCn1c(=O)c(C(=O)NC2CCCCC2)cc2cccnc21"
no (0)

# check: Ki < 600 nM for "C[C@H]1CC[C@H](NC(=O)c2cc3cccnc3n(Cc3ccccc3)c2=O)CC1"
no (0)

# check: Ki < 600 nM for "C[C@H]1CC[C@@H](NC(=O)c2cc3cccnc3n(Cc3ccccc3)c2=O)CC1"
no (0)

# check: Ki < 600 nM for "O=C(NC1CCCCCC1)c1cc2cccnc2n(CCN2CCOCC2)c1=O"
yes (1)

# check: Ki < 600 nM for CC1CCC(NC(=O)c2cc3cccnc3n(Cc3ccc(F)cc3)c2=O)CC1 (stereo not given)
yes (1)

# check: Ki < 600 nM for "O=C(NC1CCCCCC1)c1cc2cccnc2n(Cc2ccc(F)cc2)c1=O"
yes (1)

# check: Ki < 600 nM for CC1CCC(NC(=O)c2cc3cccnc3n(CCN3CCOCC3)c2=O)CC1 (stereo not given)
no (0)

# check: Ki < 600 nM for "O=C(NC1CCCCCC1)c1cc2cccnc2n(Cc2ccccc2)c1=O"
no (0)

# check: Ki < 600 nM for "O=C(NCCc1ccc(F)cc1)c1cc2cccnc2n(Cc2ccccc2)c1=O"
no (0)

# check: Ki < 600 nM for CC1CCC(NC(=O)c2cc3cccnc3n(Cc3ccccc3)c2=O)CC1 (stereo not given)
no (0)

# check: Ki < 600 nM for "O=C(NC1CCCCC1)c1cc2cccnc2n(CCN2CCOCC2)c1=O"
yes (1)

# check: Ki < 600 nM for "O=C(NC1CCCCC1)c1cc2cccnc2n(Cc2ccccc2)c1=O"
yes (1)

# check: Ki < 600 nM for "O=C(NC1CCCCC1)c1cc2cccnc2n(Cc2ccc(F)cc2)c1=O"
yes (1)

# check: Ki < 600 nM for "C[C@H]1CC[C@H](NC(=O)c2cc3cccnc3n(Cc3ccc(F)cc3)c2=O)CC1"
yes (1)

# check: Ki < 600 nM for "C[C@H]1CC[C@@H](NC(=O)c2cc3cccnc3n(Cc3ccc(F)cc3)c2=O)CC1"
yes (1)

###

For each of the molecules below, state its Ki.
Biological target: Cannabinoid receptor 2 (Homo sapiens, UniProt P34972)
Sequence (P34972 whole entry): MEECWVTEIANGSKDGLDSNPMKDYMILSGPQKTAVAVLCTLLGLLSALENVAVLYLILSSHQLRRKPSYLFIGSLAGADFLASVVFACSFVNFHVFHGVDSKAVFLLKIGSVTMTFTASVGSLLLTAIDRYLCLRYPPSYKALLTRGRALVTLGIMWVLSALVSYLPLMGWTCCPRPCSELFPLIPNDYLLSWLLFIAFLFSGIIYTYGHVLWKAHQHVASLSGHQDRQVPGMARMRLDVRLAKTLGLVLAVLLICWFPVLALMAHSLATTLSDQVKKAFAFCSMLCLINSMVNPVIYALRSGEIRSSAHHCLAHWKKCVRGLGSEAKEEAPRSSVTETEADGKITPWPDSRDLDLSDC
Assay: Displacement of [3H]CP-55940 from human recombinant CB2 receptor expressed in HEK293 cells
Hi! Could you send only the number? It should be in nM, unit omitted.

I have this molecule here, CC1CCC(NC(=O)c2cc3cccnc3n(Cc3ccccc3)c2=O)CC1 (stereo not drawn) , and I need its recorded Ki.
7.8

I have this molecule here, "C[C@H]1CC[C@H](NC(=O)c2cc3cccnc3n(Cc3ccc(F)cc3)c2=O)CC1" , and I need its recorded Ki.
9

I have this molecule here, "O=C(NC1CCCCC1)c1cc2cccnc2n(CCN2CCOCC2)c1=O" , and I need its recorded Ki.
7.9
